Cited source: patent US20210355194A1

Assayed target: CV S-protein construct 6 trimer TP31001F (SARS-CoV-2, UniProt P0DTC2 14-1208)
Method: SPR
Observation type: Kd (nM)
Lab book: enter the figure in nM, no units written.

Worked cases, answers included:
Binder: variant 6-17 (Fc fusion) VHH: EVQLVESGGGLVQPGGSLRLSCAASGNTGSTGYMGWFRQAPGKEREMVAGVINDGSTVYADSVKGRFTISADNSKNTAYLQMNSLKPEDTAVYYCARLATSHQDGTGYLFDYWGQGTLVTVSS
Kd [nM]: 0.6
--
Binder: variant 6-15 (Fc fusion) VHH: EVQLVESGGGLVQPGGSLRLSCAASGSTVLINAMGWFRQAPGKEREFVAAVRWSDDYTYYADSVKGRFTISADNSKNTAYLQMNSLKPEDTAVYYCAKEGRAGSLDYWGQGTLVTVSS
Kd [nM]: 9050

Recorded Kd of variant 5-47 (Fc fusion) VHH: EVQLVESGGGLVQPGGSLRLSCAASGFTFGSYDMGWFRQAPGKEREFVTAINWSGARTAYADSVKGRFTISADNSKNTAYLQMNSLKPEDTAVYYCAARSVYSYEYNWGQGTLVTVSS , please.
0.7
